All figures here come from ChEMBL document CHEMBL3045723.

- Test system: Escherichia coli
- test.name: Antibacterial activity against Escherichia coli MTCC 739 after 24 hr by agar disk diffusion test
- Assay type: functional
Can you tell me inhibition zone (IZ) for the items I'm about to list?

Supply measured inhibition zone (IZ) of `O=c1oc2ccccc2cc1-c1nnc(Sc2nc(Oc3cccc4cccnc34)nc(N3CCN(C(c4ccccc4)c4ccccc4)CC3)n2)o1` in your reply.
13 mm

Supply measured inhibition zone (IZ) of `COc1ccc(N2CCN(c3nc(Oc4cccc5cccnc45)nc(Sc4nnc(-c5cc6ccccc6oc5=O)o4)n3)CC2)cc1` in your reply.
17 mm

Supply measured inhibition zone (IZ) of `CCN1CCN(c2nc(Oc3cccc4cccnc34)nc(Sc3nnc(-c4cc5ccccc5oc4=O)o3)n2)CC1` in your reply.
16 mm

Supply measured inhibition zone (IZ) of `CC(C)N1CCN(c2nc(Oc3cccc4cccnc34)nc(Sc3nnc(-c4cc5ccccc5oc4=O)o3)n2)CC1` in your reply.
16 mm

Supply measured inhibition zone (IZ) of `O=c1oc2ccccc2cc1-c1nnc(Sc2nc(Oc3cccc4cccnc34)nc(N3CCN(c4ccc(F)cc4)CC3)n2)o1` in your reply.
23 mm

Supply measured inhibition zone (IZ) of `CC(=O)N1CCN(c2nc(Oc3cccc4cccnc34)nc(Sc3nnc(-c4cc5ccccc5oc4=O)o3)n2)CC1` in your reply.
15 mm

Supply measured inhibition zone (IZ) of `O=c1oc2ccccc2cc1-c1nnc(Sc2nc(Oc3cccc4cccnc34)nc(N3CCN(c4ccccn4)CC3)n2)o1` in your reply.
15 mm

Supply measured inhibition zone (IZ) of `O=c1oc2ccccc2cc1-c1nnc(Sc2nc(Oc3cccc4cccnc34)nc(N3CCN(c4ncccn4)CC3)n2)o1` in your reply.
19 mm

Supply measured inhibition zone (IZ) of `CN1CCN(c2nc(Oc3cccc4cccnc34)nc(Sc3nnc(-c4cc5ccccc5oc4=O)o3)n2)CC1` in your reply.
12 mm

Supply measured inhibition zone (IZ) of `COc1ccc(CN2CCN(c3nc(Oc4cccc5cccnc45)nc(Sc4nnc(-c5cc6ccccc6oc5=O)o4)n3)CC2)c(OC)c1OC` in your reply.
19 mm

Supply measured inhibition zone (IZ) of `O=c1oc2ccccc2cc1-c1nnc(Sc2nc(Oc3cccc4cccnc34)nc(N3CCCCC3)n2)o1` in your reply.
<10 mm

Supply measured inhibition zone (IZ) of `O=c1oc2ccccc2cc1-c1nnc(Sc2nc(Oc3cccc4cccnc34)nc(N3CCOCC3)n2)o1` in your reply.
<10 mm

Supply measured inhibition zone (IZ) of CC1CC(C)CN(c2nc(Oc3cccc4cccnc34)nc(Sc3nnc(-c4cc5ccccc5oc4=O)o3)n2)C1 (stereo unspecified) in your reply.
20 mm

Supply measured inhibition zone (IZ) of `O=c1oc2ccccc2cc1-c1nnc(Sc2nc(Oc3cccc4cccnc34)nc(N3CCC(Cc4ccccc4)CC3)n2)o1` in your reply.
12 mm

Supply measured inhibition zone (IZ) of `O=c1oc2ccccc2cc1-c1nnc(Sc2nc(Oc3cccc4cccnc34)nc(N3CCN(c4cccc(C(F)(F)F)c4)CC3)n2)o1` in your reply.
22 mm

Supply measured inhibition zone (IZ) of O=c1oc2ccccc2cc1-c1nnc(Sc2nc(Oc3cccc4cccnc34)nc(N3CCN(C(c4ccccc4)c4ccc(Cl)cc4)CC3)n2)o1 (stereo unspecified) in your reply.
25 mm

---

- System: Proteus vulgaris
- test.name: Antibacterial activity against Proteus vulgaris MTCC 1771 after 24 hr by agar disk diffusion test
- Assay type: functional
readout: inhibition zone (IZ) (mm)
Write down the numeric answer in mm and omit the unit.

Supply measured inhibition zone (IZ) of `COc1ccc(N2CCN(c3nc(Oc4cccc5cccnc45)nc(Sc4nnc(-c5cc6ccccc6oc5=O)o4)n3)CC2)cc1` in your reply.
18

Supply measured inhibition zone (IZ) of `O=c1oc2ccccc2cc1-c1nnc(Sc2nc(Oc3cccc4cccnc34)nc(N3CCN(c4ncccn4)CC3)n2)o1` in your reply.
16

Supply measured inhibition zone (IZ) of `O=c1oc2ccccc2cc1-c1nnc(Sc2nc(Oc3cccc4cccnc34)nc(N3CCN(c4ccc(F)cc4)CC3)n2)o1` in your reply.
21

Supply measured inhibition zone (IZ) of `COc1ccc(CN2CCN(c3nc(Oc4cccc5cccnc45)nc(Sc4nnc(-c5cc6ccccc6oc5=O)o4)n3)CC2)c(OC)c1OC` in your reply.
20

Supply measured inhibition zone (IZ) of `CC(=O)N1CCN(c2nc(Oc3cccc4cccnc34)nc(Sc3nnc(-c4cc5ccccc5oc4=O)o3)n2)CC1` in your reply.
18

Supply measured inhibition zone (IZ) of `O=c1oc2ccccc2cc1-c1nnc(Sc2nc(Oc3cccc4cccnc34)nc(N3CCN(c4ccccc4)CC3)n2)o1` in your reply.
15

---

- Tested on: Candida albicans
- test.name: Antifungal activity against Candida albicans MTCC 183 after 48 hr
- Type: functional
- condition.label: MTCC 183, 48 h
Can you tell me MIC for the items I'm about to list?
Write down the numeric answer in µg/mL and omit the unit.

Supply measured MIC of `O=c1oc2ccccc2cc1-c1nnc(Sc2nc(Oc3cccc4cccnc34)nc(N3CCN(c4cccc(Cl)c4)CC3)n2)o1` in your reply.
50

Supply measured MIC of `O=c1oc2ccccc2cc1-c1nnc(Sc2nc(Oc3cccc4cccnc34)nc(N3CCN(c4ccccn4)CC3)n2)o1` in your reply.
100

Supply measured MIC of `COc1ccc(CN2CCN(c3nc(Oc4cccc5cccnc45)nc(Sc4nnc(-c5cc6ccccc6oc5=O)o4)n3)CC2)c(OC)c1OC` in your reply.
50

Supply measured MIC of `O=c1oc2ccccc2cc1-c1nnc(Sc2nc(Oc3cccc4cccnc34)nc(N3CCN(c4cccc(C(F)(F)F)c4)CC3)n2)o1` in your reply.
50

---

- Tested on: Bacillus cereus
- test.name: Antibacterial activity against Bacillus cereus MTCC 619 after 24 hr
- Assay type: functional
- condition.label: MTCC 619, 24 h
The threshold is 50 µg/mL. Values of MIC beneath it are tagged YES; values meeting or exceeding it are tagged NO.

In the record for `COc1ccc(N2CCN(c3nc(Oc4cccc5cccnc45)nc(Sc4nnc(-c5cc6ccccc6oc5=O)o4)n3)CC2)cc1` , is MIC less than 50 µg/mL?
YES

In the record for `O=c1oc2ccccc2cc1-c1nnc(Sc2nc(Oc3cccc4cccnc34)nc(N3CCOCC3)n2)o1` , is MIC less than 50 µg/mL?
NO

In the record for `CC(=O)N1CCN(c2nc(Oc3cccc4cccnc34)nc(Sc3nnc(-c4cc5ccccc5oc4=O)o3)n2)CC1` , is MIC less than 50 µg/mL?
YES

In the record for `O=c1oc2ccccc2cc1-c1nnc(Sc2nc(Oc3cccc4cccnc34)nc(N3CCN(c4cccc(C(F)(F)F)c4)CC3)n2)o1` , is MIC less than 50 µg/mL?
YES

In the record for `O=C(O)c1cn(C2CC2)c2cc(N3CCNCC3)c(F)cc2c1=O` , is MIC less than 50 µg/mL?
YES

In the record for `CN1CCN(c2nc(Oc3cccc4cccnc34)nc(Sc3nnc(-c4cc5ccccc5oc4=O)o3)n2)CC1` , is MIC less than 50 µg/mL?
NO

In the record for `CC(C)N1CCN(c2nc(Oc3cccc4cccnc34)nc(Sc3nnc(-c4cc5ccccc5oc4=O)o3)n2)CC1` , is MIC less than 50 µg/mL?
NO

In the record for `O=c1oc2ccccc2cc1-c1nnc(Sc2nc(Oc3cccc4cccnc34)nc(N3CCN(C(c4ccccc4)c4ccccc4)CC3)n2)o1` , is MIC less than 50 µg/mL?
NO

In the record for `O=c1oc2ccccc2cc1-c1nnc(Sc2nc(Oc3cccc4cccnc34)nc(N3CCC(Cc4ccccc4)CC3)n2)o1` , is MIC less than 50 µg/mL?
NO

In the record for `O=c1oc2ccccc2cc1-c1nnc(Sc2nc(Oc3cccc4cccnc34)nc(N3CCN(c4cccc(Cl)c4Cl)CC3)n2)o1` , is MIC less than 50 µg/mL?
YES

---

- Test system: Candida albicans
- test.name: Antifungal activity against Candida albicans MTCC 183 after 48 hr
- Format: functional
- condition.label: MTCC 183, 48 h
Can you tell me MIC for the items I'm about to list?
Write down the numeric answer in µg/mL and omit the unit.

Supply measured MIC of `O=c1oc2ccccc2cc1-c1nnc(Sc2nc(Oc3cccc4cccnc34)nc(N3CCN(c4cccc(Cl)c4Cl)CC3)n2)o1` in your reply.
50

Supply measured MIC of `O=c1oc2ccccc2cc1-c1nnc(Sc2nc(Oc3cccc4cccnc34)nc(N3CCCCC3)n2)o1` in your reply.
100

Supply measured MIC of `O=c1oc2ccccc2cc1-c1nnc(Sc2nc(Oc3cccc4cccnc34)nc(N3CCN(c4ncccn4)CC3)n2)o1` in your reply.
100

Supply measured MIC of O=c1oc2ccccc2cc1-c1nnc(Sc2nc(Oc3cccc4cccnc34)nc(N3CCN(C(c4ccccc4)c4ccc(Cl)cc4)CC3)n2)o1 (stereo not given) in your reply.
50

Supply measured MIC of `CCN1CCN(c2nc(Oc3cccc4cccnc34)nc(Sc3nnc(-c4cc5ccccc5oc4=O)o3)n2)CC1` in your reply.
100

Supply measured MIC of `O=c1oc2ccccc2cc1-c1nnc(Sc2nc(Oc3cccc4cccnc34)nc(N3CCN(C(c4ccccc4)c4ccccc4)CC3)n2)o1` in your reply.
100

Supply measured MIC of `O=c1oc2ccccc2cc1-c1nnc(Sc2nc(Oc3cccc4cccnc34)nc(N3CCN(Cc4ccccc4)CC3)n2)o1` in your reply.
100

Supply measured MIC of `CN1CCN(c2nc(Oc3cccc4cccnc34)nc(Sc3nnc(-c4cc5ccccc5oc4=O)o3)n2)CC1` in your reply.
100

Supply measured MIC of `CC(=O)N1CCN(c2nc(Oc3cccc4cccnc34)nc(Sc3nnc(-c4cc5ccccc5oc4=O)o3)n2)CC1` in your reply.
100

Supply measured MIC of `O=c1oc2ccccc2cc1-c1nnc(Sc2nc(Oc3cccc4cccnc34)nc(N3CCN(c4ccccc4)CC3)n2)o1` in your reply.
100
